Reference source: patent US20090069300A1

Where a name gives a salt, the structure may show the parent alone.
// reported melting point for each item listed
measurement kind: melting point

| compound | result |
| --- | --- |
| C[C@@H]1CCCN1CCN1Cc2ccc(-c3ccc(F)cc3)cc2C1 (as salt: hydrochloride) | 250 to 251 °C |
| C[C@@H]1CCCN1CCN1CCc2cc(C(=O)NC3CCCC3)ccc2C1=O (as salt: hydrochloride) | 219 to 220 °C |
| COC(=O)c1ccc(Oc2ccc3c(c2)CCN(CCN2CCCC2)C3=O)cc1 (as salt: hydrochloride) | 215 to 216 °C |
| C[C@@H]1CCCN1CCN1CCc2cc(-c3ccc(C(=O)NC4CCC4)cc3)ccc2C1=O (as salt: hydrochloride) | 210 to 211 °C |
| C[C@@H]1CCCN1CCN1CCc2cc(N3CCCCC3)ccc2C1=O (as salt: hydrochloride) | > 225 °C |
| O=C(Nc1nccs1)c1ccc(-c2ccc3c(c2)CCN(CCN2CCCC2)C3=O)cc1 (as salt: hydrochloride) | 284 to 285 °C |

* * *

target of assay: Human Histamine H3 Receptor (Homo sapiens)
Construct: expressed in transfected cells; host or cells: HEK293T (stably transfected; membranes prepared from the cells)
Sequence (Q9Y5N1 whole entry): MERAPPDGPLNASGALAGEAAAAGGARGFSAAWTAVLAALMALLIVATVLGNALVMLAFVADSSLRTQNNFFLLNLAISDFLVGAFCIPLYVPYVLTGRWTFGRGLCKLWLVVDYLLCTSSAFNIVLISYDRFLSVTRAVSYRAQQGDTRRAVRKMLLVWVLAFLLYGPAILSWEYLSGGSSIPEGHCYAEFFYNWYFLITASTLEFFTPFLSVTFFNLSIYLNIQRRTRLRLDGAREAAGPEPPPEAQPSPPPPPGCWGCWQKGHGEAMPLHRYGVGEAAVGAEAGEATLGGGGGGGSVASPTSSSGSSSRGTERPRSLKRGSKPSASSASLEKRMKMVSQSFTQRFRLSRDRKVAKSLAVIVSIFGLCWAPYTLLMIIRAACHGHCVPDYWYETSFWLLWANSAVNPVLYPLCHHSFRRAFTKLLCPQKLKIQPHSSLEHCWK
assay protocol: Methyl histamine binding in human histamine H3 receptor cell line
test parameters: read-out: H3 Binding Ki
pKi: −log10 of the molar value.

| smiles notation | pKi |
| --- | --- |
| c1cc2c(cc1-c1ccc3c(c1)OCO3)CCN(CCN1CCCC1)C2 | 7.00 to 7.30 |
| C[C@@H]1CCCN1CCN1CCc2cc(-c3ccc(C(=O)NC4CCCC4)cc3)ccc2C1=O | > 8.00 |
| C[C@@H]1CCCN1C(=O)c1ccc(-c2ccc3c(c2)CCN(CCN2CCCC2)C3)cc1 | 7.60 to 8.00 |
| O=C1c2ccc(-n3ncc4ccccc43)cc2CCN1CCN1CCCC1 | > 8.00 |
| CN(C)C(=O)c1cc(-c2ccc3c(c2)CCN(CCN2CCCC2)C3=O)ccc1F | > 8.00 |
| O=C(NCCF)c1ccc(-c2ccc3c(c2)CCN(CCN2CCCC2)C3=O)cc1 | > 8.00 |
| C[C@H]1CCCN1C(=O)c1ccc(-c2ccc3c(c2)CCN(CCN2CCCC2)C3=O)cc1 | > 8.00 |
| O=C1c2ccc(-c3cccc(F)c3)cc2CCN1CCN1CCCC1 | 7.60 to 8.00 |

* * *

Counter-ions that a name gives are not always drawn.
Items are presented alongside their recorded melting point.

| compound | melting point |
| --- | --- |
| O=C(c1ccc(-c2ccc3c(c2)CCN(CCN2CCCC2)C3=O)cc1)N1CCOCC1 (as salt: hydrochloride) [Example 122] | 272 to 274 °C |
| Fc1cccc(-c2ccc3c(c2)CCN(CCN2CCCC2)C3)c1 [Example 173] | 272 to 274 °C |
| O=C1c2ccc(-c3cccc(C(F)(F)F)c3)cc2CCN1CCN1CCCC1 (as salt: hydrochloride) [Example 20] | 138 to 139 °C |
| O=C1c2ccc(N3CCCCC3)cc2CCN1CCN1CCCCC1 (as salt: hydrochloride) [Example 163] | 245 to 246 °C |
| CCNC(=O)c1ccc(-c2ccc3c(c2)CCN(CCN2CCCC2)C3=O)c(F)c1 (as salt: hydrochloride) [Example 140] | 209 to 210 °C |
| CC(C)NC(=O)c1ccc(Oc2ccc3c(c2)CCN(CCN2CCCC2)C3=O)cc1 [Example 94] | 223 to 224 °C |
| O=C(c1ccc(-c2ccc3c(c2)CCN(CCN2CCCC2)C3=O)c(F)c1)N1CCCC1 (as salt: hydrochloride) [Example 138] | 225 to 226 °C |
